Entries and their growth values follow.
System: SF-539 CNS
Experiment: NCI-60 one-dose screen, 48 h (100 = growth as untreated, 0 = no growth, -100 = all killed)
Settings: 10 µM
This is part of a sample that, as a whole, favours compounds with a hit. Of some 83,000 tested, about 20% had one in any assay. Active and inactive are the calls of the source. The calls were made as follows: active = growth percent below 10; inactive = the rest.

[[record]]
compound = "CC1Cc2ccccc2O1 (configuration not stated)"
value_observed = "100% (inactive)"

[[record]]
compound = "COc1ccc(NC(=O)CCl)cc1"
value_observed = "83.5% (inactive)"

[[record]]
compound = "Cc1ccc(C)n1-c1ccsc1C(=O)NNC(=O)CCl"
value_observed = "101% (inactive)"

[[record]]
compound = "CCCC(C)OCC(=O)O (configuration not stated)"
value_observed = "102% (inactive)"

[[record]]
compound = "FC(F)(F)c1ccc2c(c1)N(CCCN1CCN(C3CC3)CC1)c1ccccc1S2"
value_observed = "94.2% (inactive)"

[[record]]
compound = "O=C(CCl)N1CCN(C/C=C/c2ccccc2)CC1"
value_observed = "104% (inactive)"


Could you now look at the following compound, please?
Requested field: growth. Item: O/N=C/c1ccc(O)cc1O 104% (inactive)
